Data origin, for the record: paper PMC12136031

experimental system: OPRK1 (Homo sapiens, UniProt P41145)
Sequence (P41145 whole entry, species assumed): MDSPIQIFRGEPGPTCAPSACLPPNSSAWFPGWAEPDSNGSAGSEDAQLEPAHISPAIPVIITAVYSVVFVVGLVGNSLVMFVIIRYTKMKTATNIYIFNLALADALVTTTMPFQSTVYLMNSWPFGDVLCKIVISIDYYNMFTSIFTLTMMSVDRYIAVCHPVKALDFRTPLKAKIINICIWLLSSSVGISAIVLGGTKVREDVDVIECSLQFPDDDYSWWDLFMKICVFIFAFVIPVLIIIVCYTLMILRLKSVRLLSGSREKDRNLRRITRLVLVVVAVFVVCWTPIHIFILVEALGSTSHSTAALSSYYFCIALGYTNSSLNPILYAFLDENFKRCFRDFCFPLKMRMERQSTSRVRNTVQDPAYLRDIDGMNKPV
protocol summary: Safety47 cAMP OPRK1
conditions: Antagonist, read-out: RC50 (IC50)
pIC50: −log10 of the molar value.
readout type: pIC50

compound: Cl.c1ccc2c(Nc3ccc4[nH]ccc4c3)nc(-c3ccncc3)nc2c1 [BC18630]
measurement: < 5.00

Ask: Reported pIC50, compound Cl.Fc1cc(Nc2nc(-c3ccncc3)nc3ncccc23)cc2cc[nH]c12 [BC18813] : ____
Reply: < 5.00

----------
experimental system: KvLQT1/minK (Homo sapiens, UniProt P51787)
Sequence (P51787 whole entry): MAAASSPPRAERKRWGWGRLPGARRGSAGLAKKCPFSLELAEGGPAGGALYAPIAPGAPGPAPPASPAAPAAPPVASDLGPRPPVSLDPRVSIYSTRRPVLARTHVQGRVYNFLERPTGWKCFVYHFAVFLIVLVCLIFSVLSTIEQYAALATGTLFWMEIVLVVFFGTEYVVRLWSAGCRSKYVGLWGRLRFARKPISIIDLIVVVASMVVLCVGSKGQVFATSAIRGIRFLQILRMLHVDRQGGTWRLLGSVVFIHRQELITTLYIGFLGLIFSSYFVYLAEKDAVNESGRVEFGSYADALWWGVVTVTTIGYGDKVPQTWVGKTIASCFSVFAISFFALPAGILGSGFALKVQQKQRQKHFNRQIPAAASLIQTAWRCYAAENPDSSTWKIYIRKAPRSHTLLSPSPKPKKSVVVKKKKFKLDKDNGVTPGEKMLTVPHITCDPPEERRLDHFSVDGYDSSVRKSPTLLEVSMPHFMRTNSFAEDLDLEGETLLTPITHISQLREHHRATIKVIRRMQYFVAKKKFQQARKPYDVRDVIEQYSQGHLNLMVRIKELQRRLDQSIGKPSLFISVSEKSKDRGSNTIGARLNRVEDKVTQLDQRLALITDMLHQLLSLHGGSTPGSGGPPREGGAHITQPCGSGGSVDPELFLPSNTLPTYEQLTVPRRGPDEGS
protocol summary: Safety47 Ion Channel KvLQT1/minK
conditions: Opener, read-out: RC50 (EC50)
So I've got a bunch of compounds here, and I need their EC50 values.

structure smiles string: Cl.Fc1cc(Nc2nc(-c3ccncc3)nc3ncccc23)cc2cc[nH]c12
measurement: > 10 µM

# context switch: different compound, same EC50
Ask: Reported EC50, compound Cl.c1ccc2c(Nc3ccc4[nH]ccc4c3)nc(-c3ccncc3)nc2c1 : ____
Reply: > 10 µM

----------
experimental system: PDE3A (Homo sapiens, UniProt Q14432)
Sequence (Q14432 whole entry, species assumed): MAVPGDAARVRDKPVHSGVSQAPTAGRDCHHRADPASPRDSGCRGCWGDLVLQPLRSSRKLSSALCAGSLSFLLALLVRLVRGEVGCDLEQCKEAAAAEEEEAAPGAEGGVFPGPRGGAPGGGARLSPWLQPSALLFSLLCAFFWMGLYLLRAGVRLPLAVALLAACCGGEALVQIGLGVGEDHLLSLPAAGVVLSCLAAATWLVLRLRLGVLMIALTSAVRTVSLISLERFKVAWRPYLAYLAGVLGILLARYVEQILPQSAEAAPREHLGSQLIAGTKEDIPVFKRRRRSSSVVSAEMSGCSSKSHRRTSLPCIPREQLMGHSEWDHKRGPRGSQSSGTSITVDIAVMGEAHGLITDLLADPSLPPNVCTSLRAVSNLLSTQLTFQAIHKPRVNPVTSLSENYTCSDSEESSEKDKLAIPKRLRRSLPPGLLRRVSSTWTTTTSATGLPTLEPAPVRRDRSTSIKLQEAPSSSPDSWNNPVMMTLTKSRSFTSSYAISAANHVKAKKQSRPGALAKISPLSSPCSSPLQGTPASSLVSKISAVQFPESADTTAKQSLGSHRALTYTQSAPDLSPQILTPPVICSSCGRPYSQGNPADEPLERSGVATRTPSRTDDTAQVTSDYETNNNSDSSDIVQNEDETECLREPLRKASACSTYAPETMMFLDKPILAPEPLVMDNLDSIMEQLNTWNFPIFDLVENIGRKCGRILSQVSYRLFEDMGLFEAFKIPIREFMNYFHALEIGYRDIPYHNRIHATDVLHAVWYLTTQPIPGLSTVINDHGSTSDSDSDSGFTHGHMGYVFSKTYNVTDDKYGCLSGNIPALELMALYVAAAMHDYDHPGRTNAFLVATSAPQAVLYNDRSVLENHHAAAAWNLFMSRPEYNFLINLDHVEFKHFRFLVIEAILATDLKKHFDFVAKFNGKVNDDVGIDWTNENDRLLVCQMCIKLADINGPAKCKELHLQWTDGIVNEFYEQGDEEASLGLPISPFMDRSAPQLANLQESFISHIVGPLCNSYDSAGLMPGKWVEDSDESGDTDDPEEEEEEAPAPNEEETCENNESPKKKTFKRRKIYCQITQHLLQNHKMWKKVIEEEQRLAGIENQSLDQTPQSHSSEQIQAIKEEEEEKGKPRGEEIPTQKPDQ
pIC50: −log10 of the molar value.
readout type: pIC50

structure smiles string: Cl.c1ccc2c(Nc3ccc4[nH]ccc4c3)nc(-c3ccncc3)nc2c1
experimental system: PDE3A (Homo sapiens, UniProt Q14432)
measurement: < 5.00

# context switch: different compound, same pIC50
Ask: Reported pIC50, compound Cl.Fc1cc(Nc2nc(-c3ccncc3)nc3ncccc23)cc2cc[nH]c12 : ____
Reply: < 5.00

----------
experimental system: CHRM2 (Homo sapiens, UniProt P08172)
Sequence (P08172 1-466): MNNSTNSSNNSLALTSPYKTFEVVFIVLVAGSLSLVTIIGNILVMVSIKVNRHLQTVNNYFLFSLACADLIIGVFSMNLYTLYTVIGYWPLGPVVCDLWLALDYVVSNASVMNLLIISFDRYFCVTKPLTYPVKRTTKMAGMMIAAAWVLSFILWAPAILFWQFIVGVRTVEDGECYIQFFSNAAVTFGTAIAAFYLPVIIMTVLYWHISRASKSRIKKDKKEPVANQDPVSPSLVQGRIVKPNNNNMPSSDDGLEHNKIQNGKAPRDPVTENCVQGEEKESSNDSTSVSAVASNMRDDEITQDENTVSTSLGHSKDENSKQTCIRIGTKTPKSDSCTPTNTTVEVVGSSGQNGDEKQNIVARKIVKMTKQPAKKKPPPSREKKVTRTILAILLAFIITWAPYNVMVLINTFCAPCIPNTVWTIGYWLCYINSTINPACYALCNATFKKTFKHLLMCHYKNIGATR
protocol summary: Safety47 cAMP CHRM2
conditions: Agonist, read-out: RC50 (EC50)
readout type: EC50

// for each compound below, give its EC50
1. Cl.Fc1cc(Nc2nc(-c3ccncc3)nc3ncccc23)cc2cc[nH]c12 [BC18813]
2. Cl.c1ccc2c(Nc3ccc4[nH]ccc4c3)nc(-c3ccncc3)nc2c1 [BC18630]

Reply:
["> 10 µM", "> 10 µM"]

----------
protocol summary: in vitro
conditions: African green monkey
readout type: CC50

Ask: Reported CC50, molecule Cl.c1ccc2c(Nc3ccc4[nH]ccc4c3)nc(-c3ccncc3)nc2c1 [BC18630] : ____
Reply: > 10 µM
